TARGET OR TEST SYSTEM: Savinase Ultra 16.0L (Lederbergia lenta, UniProt P29600)
Construct: purchased Sigma-Aldrich
Sequence (P29600 whole entry): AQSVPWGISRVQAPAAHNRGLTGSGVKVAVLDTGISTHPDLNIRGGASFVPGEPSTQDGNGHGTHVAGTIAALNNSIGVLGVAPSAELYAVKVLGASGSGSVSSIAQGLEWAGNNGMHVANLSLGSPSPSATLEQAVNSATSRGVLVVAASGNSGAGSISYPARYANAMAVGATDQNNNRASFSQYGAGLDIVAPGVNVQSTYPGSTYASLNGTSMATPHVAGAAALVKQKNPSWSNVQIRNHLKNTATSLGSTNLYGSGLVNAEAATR
METHOD DESCRIPTION: protease storage stability in liquid formulation (Suc-AAPF-pNA substrate)
Format: biochemical
TEST PARAMETERS: base formulation III., 1.5 wt % component (a), storage at 37° C., 14 d
QUANTITY: protease activity, referring to reference formulation at time 0

COMPOUND: CCCOC(=O)CC(O)(CC(=O)OCCC)C(=O)OCCC [A.2, Tripropylcitrate]
TARGET OR TEST SYSTEM: Savinase Ultra 16.0L (Lederbergia lenta, UniProt P29600)
VAL: 93
//
COMPOUND: CCOC(=O)CC(CC(=O)OCC)(OC(C)=O)C(=O)OCC [A.5, Acetyltriethylcitrate]
TARGET OR TEST SYSTEM: Savinase Ultra 16.0L (Lederbergia lenta, UniProt P29600)
VAL: 83
//
COMPOUND: CCCCOC(=O)CC(CC(=O)OCCCC)(OC(C)=O)C(=O)OCCCC [A.4, Acetyltributylcitrate]
TARGET OR TEST SYSTEM: Savinase Ultra 16.0L (Lederbergia lenta, UniProt P29600)
VAL: 91
//
COMPOUND: CCOC(=O)CC(O)(CC(=O)OCC)C(=O)OCC [A.1, Triethylcitrate]
TARGET OR TEST SYSTEM: Savinase Ultra 16.0L (Lederbergia lenta, UniProt P29600)
VAL: 88
